Kindly state ED50 for each of the entries shown.
organism: Cavia porcellus; assay: Bronchodilator activity against histamine-induced spasm in guinea pig; assay type: functional; conditions: read-out: ID50 (the source's name)

ED50 lookup needed for "S=c1c2c(nc3n1CCCCC3)CCC2" , thanks.
> 320 µmol/kg

// next record "O=c1nc2n(c3c1CCC3)CCC2"
> 100 µmol/kg

// next record "O=C(O)c1ccc2c(=O)n3c(nc2c1)CCC3"
> 100 µmol/kg
